The measurements presented in this section are drawn from patent US9376425B2.

# Study system: human MDM2 (GST-hMDM2 1-188), interaction with biotinylated-p53 (1-83) (Homo sapiens, UniProt Q00987)
# Construct: Amino acid residues 1-188 of human MDM2 were expressed
# Sequence (Q00987 1-188): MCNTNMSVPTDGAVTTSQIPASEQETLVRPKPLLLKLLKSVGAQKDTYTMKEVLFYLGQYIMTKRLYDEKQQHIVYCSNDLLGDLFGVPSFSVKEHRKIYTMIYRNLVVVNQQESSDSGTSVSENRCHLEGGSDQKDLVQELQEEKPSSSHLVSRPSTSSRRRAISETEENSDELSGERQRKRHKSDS
# Test name: improved HTRF assay (HTRF2 assay), inhibition of HDM2-p53 interaction
# Conditions: 0.2 nM GST-hMDM2, 0.5 nM biotinylated-p53, 100 mM KF
# IC50 listing for each entry below
Result type: IC50 (nM)

Molecule	Unit spec	Result operator	Val
CC[C@@H](CS(=O)(=O)[C@H](C)C(C)C)N1C(=O)[C@H](CC(=O)O)O[C@H](c2cccc(Cl)c2)[C@H]1c1ccc(Cl)cc1 (single isomer, unassigned) [Example 282]	nM	=	2
CC1(C)CCCN1S(=O)(=O)C[C@H](C1CC1)N1C(=O)[C@@H](CC(=O)O)O[C@H](c2cccc(Cl)c2)[C@H]1c1ccc(Cl)cc1 (single isomer, unassigned) [Example 306]	nM	<	1
NC(=O)C[C@@H]1O[C@H](c2cccc(Cl)c2)[C@@H](c2ccc(Cl)cc2)N([C@H](CN(c2ccccc2F)S(=O)(=O)C2CC2)C2CC2)C1=O (single isomer, unassigned) [Example 256]	nM	<	1
CC[C@@H](CN(c1ccccc1F)S(=O)(=O)C1CC1)N1C(=O)[C@@H](CC(=O)NS(=O)(=O)C(C)C)O[C@H](c2cccc(Cl)c2)[C@H]1c1ccc(Cl)cc1 (single isomer, unassigned) [Example 259]	nM	=	1
CC[C@@H]([C@H](C)S(=O)(=O)C(C)C)N1C(=O)[C@@H](CC(=O)O)O[C@H](c2cccc(Cl)c2)[C@H]1c1ccc(Cl)cc1 (single isomer, unassigned) [Example 415]	nM	=	1
CC(C)(C)S(=O)(=O)C[C@H](CC(F)(F)F)N1C(=O)[C@@H](CC(N)=O)O[C@H](c2cccc(Cl)c2)[C@H]1c1ccc(Cl)cc1 (single isomer, unassigned) [Example 363]	nM	=	23
CC[C@@H](CN(c1ccccc1F)S(=O)(=O)C1CC1)N1C(=O)[C@H](CC(N)=O)O[C@H](c2cccc(Cl)c2)[C@H]1c1ccc(Cl)cc1 (single isomer, unassigned) [Example 241]	nM	=	1
C[C@H]1CCCN1S(=O)(=O)C[C@H](C1CC1)N1C(=O)[C@@](C)(CC(=O)O)O[C@H](c2cccc(Cl)c2)[C@H]1c1ccc(Cl)cc1 (single isomer, unassigned) [Example 337]	nM	=	50
CN(C)C(=O)C[C@H]1O[C@H](c2cccc(Cl)c2)[C@@H](c2ccc(Cl)cc2)N([C@H](CN(c2ccccc2F)S(=O)(=O)C2CC2)C2CC2)C1=O (single isomer, unassigned) [Example 367]	nM	=	4
CC[C@@H](CN(c1ccccn1)S(=O)(=O)C1CC1)N1C(=O)[C@H](CC(=O)O)O[C@H](c2cccc(Cl)c2)[C@H]1c1ccc(Cl)cc1 (single isomer, unassigned) [Example 181]	nM	=	1
